outcomeMeasure: melting point

Return reported melting point; argument: `CCn1c(CC(=O)NOCc2ccccc2)nc2cc(F)c(N3CCN(C)CC3)cc21` 165 to 168 °C

What measured melting point goes with COc1cc2c(cc1O)CC1CN(C)Cc3c(O)c(OC)cc-2c31 (configuration not stated) ? 300 °C

Given the entry `CCN(CC)Cc1nc(-c2ccc(OC)c(OC)c2)c2cc(OC)c(OC)cc2n1` , report its measured melting point. 111 to 113 °C

Query (molecule): `CC(C)(c1ccccc1)c1cc(C(C)(C)c2ccccc2)c(O)cc1O` ; field requested: melting point 130 °C

Recorded melting point for `COc1cccc(C2(O)c3cccc(O)c3C(=O)c3c(O)cccc32)c1` , please? 187 °C

# melting point lookup, item `COc1cn(-c2ccc(C3CC3)cc2F)nc(-c2ccnn2-c2ccccc2)c1=O` 140 to 142 °C

Tell me the measured melting point of `O=C(Nc1ccc2nc(CN3CCCC3)ccc2c1)c1ccc(N2CCCCC2=O)cc1` , please. 210 to 212 °C

If you can, please state the reported melting point value of `CCCCC(Cc1cc(C(C)(C)C)c(O)c(C(C)(C)C)c1)(C(=O)OC1CC(C)(C)N(OC)C(C)(C)C1)C(=O)OC1CC(C)(C)N(OC)C(C)(C)C1` . 111 to 113 °C

Can you share its melting point? I mean this molecule: Cc1cc(C)c2c(c1)C(=O)CC21CNC(=O)C1 (configuration not stated) 208 to 210 °C

I am curious: what melting point value has been reported for `CCCCCCCCCCCCC#CCC(NC(C)=O)(C(=O)OCC)C(=O)OCC` ? 43 to 43.5 °C

Fill in the blank: the reported melting point of `NC(=O)c1ccn(-c2ccc(Oc3ccccc3)cc2)n1` is ____. 165 to 167 °C

GET /values?readout=melting point&item= `CC(C)(C)SSc1nc2ccccc2s1` 80 to 80.5 °C

What does the data say about its melting point? Entry: `O=CC(=Cc1ccccc1F)C(C=O)=Cc1ccccc1F` 141 to 142 °C

Which melting point is listed for `CCCCCCCN(CCN1CCN(CCSc2nc3c(C)c(Cl)cc(C(C)C)c3o2)CC1)C(=O)Nc1c(C(C)C)cc(O)cc1C(C)C` ? 138 to 140 °C

State the recorded melting point for this entry: CC(OC1CCCCO1)C1CCC2C3CC=C4CC(O)CC(O)C4(C)C3CCC12C (configuration not stated) 122 to 124 °C

Give its melting point value. Item: CCOC(=O)c1ccc2c(c1)CCCC2Cn1ccnc1S (configuration not stated) 155 to 156 °C

Consider the molecule shown here: COc1ccc2c(c1)CCC1CCNC(=O)C(CNC(C)C)=C21 (configuration not stated) What is its recorded melting point? 212 to 214 °C

What measured melting point goes with `CCOc1nc2cccc(C(=O)OC)c2n1Cc1ccc(-c2ccccc2C(N)=O)cc1` ? 198 to 199 °C

Quick check: melting point of CC(C)(CO)c1cc2c(cc1Cl)C=C(C(=O)O)C(C(F)(F)F)O2 (configuration not stated) ? 204 to 205 °C

What value of measured melting point is listed for COc1cc(NC(C)C)ccc1CN1C(=O)C(C)(c2ccccc2Cl)c2cc(Cl)ccc21 (configuration not stated) ? 137 °C

Need melting point, item `O=[N+]([O-])c1ccc(Oc2c(Cl)cc(S(=O)(=O)Nc3nc(-c4cccc([N+](=O)[O-])c4)cs3)cc2Cl)cc1` > 250 °C

I would be grateful if you could share the reported melting point for `O=[N+]([O-])c1nc(NCCO)ccc1NCCO` . 158 °C

Dear colleague, I am looking for the recorded melting point of the following molecule: CCCCn1cc(S(C)=O)c(=O)c2ccccc21 (configuration not stated) 103 to 105 °C

Reported melting point for `CCN1c2ncccc2C(C#N)=Nc2c(C)cc(C)nc21` : what is it? 154 to 155 °C

I have this molecule here, CC(=O)C1=CCC2C3CCC4CC=CCC4(C)C3C(=O)CC12C (configuration not stated) , and I need its recorded melting point. 176 to 177 °C

Fill in: melting point of `Cc1c(Br)c(O)c(Cc2ccc(C(C)C)cc2)c(C)c1N(Cc1ccccc1)C(=O)CC(C)(C)C` is ___ 107 to 108 °C

Need melting point, item `CC(C)(C)OC(=O)NCC(=O)c1ccccc1` 63 to 65 °C

Reported melting point for `CCN(CC)C(=O)c1ccc2ccccc2c1-c1ccc(F)cc1` : what is it? 103 to 104 °C

Which measured melting point value corresponds to `Cc1cc2nc(Cl)cc(NCc3c(C)cccc3C)c2[nH]1` ? 310 to 312 °C

Recorded melting point of `COC(=O)CCC(=O)c1ccc(Cl)c(S(N)(=O)=O)c1` , please. 113 to 115 °C

Look up melting point: `CCOCc1nc2cnc3cccnc3c2n1Cc1ccccc1` 118 to 119 °C

Consider the molecule `CNC(=C[N+](=O)[O-])NCc1cccnc1` and give its measured melting point. 159 to 160 °C

Sourced from a melting point compilation (Tetko et al.; mined from patent text by program, amines drawn as free bases though some values may be those of a salt)
